biological target: Neuronal acetylcholine receptor subunit alpha-4 (Homo sapiens, UniProt P43681)
Sequence (P43681 whole entry): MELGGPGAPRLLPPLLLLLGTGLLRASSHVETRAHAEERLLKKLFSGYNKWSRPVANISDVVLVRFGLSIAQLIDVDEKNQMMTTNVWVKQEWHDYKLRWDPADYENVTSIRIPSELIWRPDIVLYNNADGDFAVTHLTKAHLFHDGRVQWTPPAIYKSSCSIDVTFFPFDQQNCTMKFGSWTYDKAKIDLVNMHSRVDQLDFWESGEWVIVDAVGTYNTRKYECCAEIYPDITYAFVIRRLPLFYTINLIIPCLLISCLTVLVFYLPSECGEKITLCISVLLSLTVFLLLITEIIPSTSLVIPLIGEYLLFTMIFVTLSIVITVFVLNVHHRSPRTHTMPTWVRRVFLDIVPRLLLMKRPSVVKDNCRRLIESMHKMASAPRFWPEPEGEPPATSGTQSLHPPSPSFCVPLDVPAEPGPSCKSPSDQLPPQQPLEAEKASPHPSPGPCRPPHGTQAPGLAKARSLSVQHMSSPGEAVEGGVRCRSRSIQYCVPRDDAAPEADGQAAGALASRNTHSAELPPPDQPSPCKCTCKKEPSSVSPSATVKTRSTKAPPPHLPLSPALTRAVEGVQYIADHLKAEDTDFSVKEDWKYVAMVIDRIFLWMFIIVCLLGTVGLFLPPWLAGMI
pKi: −log10 of the molar value.
Response key: Met means pKi >= 7; Not met means pKi < 7.

Examples from the recorded data:
>  <molecule>
COc1cc2c3cc1Oc1cc(ccc1O)C[C@H]1c4c(cc(OC)c(O)c4Oc4ccc(cc4)C[C@@H]3N(C)CC2)CC[N+]1(C)C [CAS_57-94-3]

>  <assignedLabel>
Not met

$$$$
>  <molecule>
C[N+](C)(C)CCOC(=O)CCC(=O)OCC[N+](C)(C)C

>  <assignedLabel>
Not met

$$$$
>  <molecule>
C[N+](C)(C)CCOC(=O)CCCCCCC(=O)OCC[N+](C)(C)C [NSC_123990]

>  <assignedLabel>
Met

$$$$

Pending molecule:
In plain terms: is recorded pKi at least 7 for O=c1cccc2n1CC1CNCC2C1 (stereo not given) [CAS_485-35-8] ?
Met

###

In what follows, each item is paired with its Ki for Neuronal acetylcholine receptor subunit alpha-4 (Homo sapiens).
Give bare numbers, in nM.

Example entries and their recorded answers appear below.
>  <compound>
C[N+]1(C)CCN(c2ccccc2)CC1 [DMPP]

>  <Ki (nM)>
20

$$$$
>  <compound>
C[N+](C)(C)CCCCCCCCCC[N+](C)(C)C [Decamethonium Iodide]

>  <Ki (nM)>
1300

$$$$

Dear colleague, could you send me Ki for each of the items below? Thanks.
1. CCN1CC2(COC(=O)c3ccccc3-n3c(O)cc(C)c3O)CCC(OC)C34C5CC6C(OC)CC(O)(C5C6OC)C(O)(C(OC)C23)C14 (centres undefined) [CAS_21019-30-7]
2. CC(=O)SCC[N+](C)(C)C [ATC]

[2800, 170]

Origin of the recorded values: BindingDB's records for doi:10.1124/mol.64.6.1283
